Hello, the source for this data is ChEMBL document CHEMBL1201862, in case you need it.

tested on: SK-MEL-28; experiment: NCI tumour cell line growth inhibition, 48 h
Calls of active or inactive are those of the source. Cut-off read from the data, not from the text of the source: active = GI50 up to about 1.1 µM and inactive = higher.
GI50 values for the compounds below.

COMPOUND	GI50
CCCN1C(=O)C/C(=C\C(C)=O)Nc2ccccc21	> 100 µM (inactive)
CCNC(=S)/N=c1\sc(NCC)nc2sc3c(c12)CCN(N1CCc2c(sc4nc(NCC)s/c(=N\C(=S)NCC)c24)C1)C3	92 µM (inactive)
COC(=O)C(CC(C)C)NC(=O)C(NC(=O)c1ccc(-c2ccc(Cl)cc2Cl)o1)C(C)C (stereo not given)	33.4 µM (inactive)
O=c1[nH]c2ccc(C(F)(F)F)cc2nc1Cc1ccccc1	39.7 µM (inactive)
CC(=O)c1cc2c(Br)cccc2oc1=O	> 100 µM (inactive)
O=C(O)CCC(c1ccccc1)(c1ccccc1)c1ccccc1	50.5 µM (inactive)
N#CC12CCC1C1CCCCC12N1CCSCC1 (stereo not given)	> 100 µM (inactive)
Brc1ccc(CCNCCN2CCCCC2)cc1	11.8 µM (inactive)
CC(=O)OCC1OC(n2c3c(c(-c4ccco4)c(C#N)c2=S)CCCC3)C(OC(C)=O)C(OC(C)=O)C1OC(C)=O (stereo not given)	> 31.6 µM (inactive)
COC(=O)C(/C(=N/NC(=O)c1ccncc1)C(=O)Nc1ccccc1OC)c1nc2ccc(Cl)cc2nc1O (stereo not given)	> 100 µM (inactive)
N#C/C(=C/c1cccnc1)C(=O)c1ccccc1	> 100 µM (inactive)
N#CCCC1(CCC#N)CCCCCCCCC(CCC#N)(CCC#N)C(O)C1O (stereo not given)	> 100 µM (inactive)
CCCCCCCCCCCCCC(=O)OC(/C=C/C(C)C)C(O)C(O)C(OC)C(=O)NC1CCCCNC1=O (stereo not given)	1.61 µM (inactive)
OCC1NC(CO)C(O)C1O (stereo not given)	> 100 µM (inactive)
COc1cc(/C=C2\C[C@H]3[C@@H]4CC=C5C[C@@H](N6CCCC6)CC[C@]5(C)[C@H]4CC[C@]3(C)[C@H]2O)cc(OC)c1OC	17.4 µM (inactive)
O=C(c1ccccc1)c1c(-c2ccccc2)sc2nc3ccccc3nc12	> 100 µM (inactive)
CCOC(=O)C1C(c2ccc([N+](=O)[O-])cc2)NC(c2ccc([N+](=O)[O-])cc2)C(C(=O)OC)S1(=O)=O (stereo not given)	> 100 µM (inactive)
CC(C)=CCC(O)[C@](C)(O)[C@H]1[C@H](O)C[C@@]2(C)[C@@H]3CCc4cc(O)c(OC5OC(CO)C(O)C(O)C5O)cc4C3(C)C(=O)C[C@]12C (stereo not given in full)	> 100 µM (inactive)
Cc1ccc2[nH]c(=N/c3ccccc3C)/c(=N\c3ccccc3C)[nH]c2c1	64.4 µM (inactive)
COc1ccc(-c2nnc(CCCCCCCCc3nnc(-c4ccc(OC)cc4)o3)o2)cc1	> 100 µM (inactive)

---

system: SK-MEL-28; assay: NCI tumour cell line growth inhibition, 48 h
The source made the active and inactive calls. Rule as the data show it: active = GI50 up to about 1.1 µM and inactive = higher.
OBSERVATION_TYPE: GI50

MOLECULE	OBSERVATION_TYPE	RESULT
COc1ccc(OC)c(NCC(=O)Nn2cnc3ccc(S(=O)(=O)Nc4cc(OC)ccc4OC)cc3c2=O)c1	GI50	> 100 µM (inactive)
Cc1cc(C)nc(NS(=O)(=O)c2ccc(NNC(=O)c3cccc4c(NNc5ccc(S(=O)(=O)Nc6nc(C)cc(C)n6)cc5)c5ccccc5nc34)cc2)n1	GI50	23.4 µM (inactive)
C/C(=N/NC(=S)N1CCCCC1)c1ccccc1O	GI50	> 31.6 µM (inactive)
COc1ccc2c(c1)-c1[nH]c3ccccc3c1CC2	GI50	16.8 µM (inactive)
CCc1cccc(C)c1NC(=O)CC1C(=O)Nc2ccccc2[S+]1[O-] (stereo not given)	GI50	73.1 µM (inactive)

---

tested on: HOP-62; assay: NCI tumour cell line growth inhibition, 48 h
Calls of active or inactive are those of the source. No stated cut-off is given here; in the data, active = GI50 up to about 1.1 µM and inactive = higher.
Measured GI50, listed per entry.

COMPOUND	TESTED_TARGET	GI50
COc1ccc(C2C3=C(COC3=O)OC(C)(C)Oc3cc4c(cc32)OCO4)cc1 (stereo not drawn)	HOP-62	23.6 µM (inactive)
CCOC(=O)c1ccc(-c2onc(C)c2Br)[nH]1	HOP-62	59.3 µM (inactive)
O=C(O)c1cc2ccccc2c(/N=N/c2c([N+](=O)[O-])cc([N+](=O)[O-])cc2S(=O)(=O)O)c1O	HOP-62	> 100 µM (inactive)
COc1ccc(/C=C/C(=O)NCC(NC(=O)/C=C/c2ccc(OC)c(OC)c2)C(=O)O)cc1OC (stereo not drawn)	HOP-62	> 100 µM (inactive)
CCCCCCCCCCCCOCC1(COCCCCCCCCCCCC)COC(c2ccc(N)cc2)OC1	HOP-62	> 100 µM (inactive)
C#Cc1cccc(N2C(=O)c3c(c(-c4ccccc4)c(-c4ccc(Cc5ccc(-c6c(-c7ccccc7)c7c(c(-c8ccccc8)c6-c6ccccc6)C(=O)N(c6cccc(C#C)c6)C7=O)cc5)cc4)c(-c4ccccc4)c3-c3ccccc3)C2=O)c1	HOP-62	25.8 µM (inactive)
COc1ccc(C2CC(c3cc(C)ccc3O)=NC(N)=N2)cc1 (stereo not drawn)	HOP-62	> 100 µM (inactive)
CCOC(=O)C(=Cc1cccnc1C)C(=O)OCC	HOP-62	18.8 µM (inactive)
CCOC(=O)/C(=C\NC(N)=S)C(=O)c1ccccc1	HOP-62	> 100 µM (inactive)
CCCCCCCCCCCCCC(=O)OC1C(O)C(CO)OC(OC)C1NC(=O)N(CCCl)N=O (stereo not drawn)	HOP-62	50.7 µM (inactive)
SC1=Nc2ccccc2-c2nc(-c3ccccc3)cc(-c3ccc(Br)cc3)c2C1	HOP-62	1.31 µM (inactive)
C[C@@H]1CC[C@H]2[C@H]1[C@H]1[C@@H](CC[C@]2(C)N=C=S)C1(C)C	HOP-62	31.8 µM (inactive)
COc1ccc(-c2nc3ccc([N+](=O)[O-])cc3c(=O)[nH]2)cc1	HOP-62	> 45.6 µM (inactive)
O=c1c(C(c2ccco2)c2c(O)oc3ccccc3c2=O)c(O)oc2ccccc12	HOP-62	> 100 µM (inactive)
CCOC(=O)C1(O)C(=O)C2=C3C(=O)OC(C4OC(=O)c5c(c(O)c(O)c(O)c5C31)-c1c(cc(O)c(O)c1O)C(=O)OC1COC(=O)c3cc(O)c(O)c(O)c3-c3c(cc(O)c(O)c3O)C(=O)OC14)[C@@H]2O (stereo partly drawn)	HOP-62	36.5 µM (inactive)
C=C(CC(=O)Nc1ccc(C(=O)OC)o1)C(=O)OC	HOP-62	73.3 µM (inactive)
COc1ccc2c(c1)-c1[nH]c3ccccc3c1CC2	HOP-62	16.8 µM (inactive)
Cn1c(=O)nc2n(-c3ccc(Cl)cc3)c(-c3ccccc3)c(-c3ccccc3)nc-2c1=O	HOP-62	25.3 µM (inactive)

---

tested on: SK-OV-3; experiment: NCI tumour cell line growth inhibition, 48 h
Activity calls are given as the source filed them. No stated cut-off is given here; in the data, active = GI50 up to about 1.1 µM and inactive = higher.
OBSERVATION_TYPE: GI50

COMPOUND	RESULT
Cc1ccccc1NC(=O)c1cc2cc(/N=N/c3ccccc3C(=O)O)ccc2oc1=O	28.2 µM (inactive)
c1ccc(CCc2cccnc2)nc1	> 100 µM (inactive)
COc1cc(N(C)C)c(OC)cc1C=C1C=CC=C1	> 100 µM (inactive)
CC(C(=O)NCNC(=O)c1ccccc1)C(=O)Nc1ccccc1 (stereo unspecified)	> 100 µM (inactive)
CN(C)CCC(/C=C/c1ccccc1)=N\Nc1ccc(Cl)cc1	3.99 µM (inactive)
CCCCCCCCCCCCCC(=O)OC1C(CO)OC(=O)C1O (stereo unspecified)	> 100 µM (inactive)

---

test system: SK-OV-3; assay: NCI tumour cell line growth inhibition, 48 h
The source made the active and inactive calls. No stated cut-off is given here; in the data, active = GI50 up to about 1.1 µM and inactive = higher.
Classes used: active, inactive

COMPOUND	DISCRETE_LABEL
c1cc(-c2ccc(-c3nc4ccc(C5=NCCN5)cc4s3)s2)ccc1C1=NCCN1	active
CC(=O)NC1C(OCc2ccccc2)OC(COC(=O)CCCCCCCCCCNC(=O)c2cccc3c(=O)c4ccccc4[nH]c23)C(O)C1OC(C)C(=O)NC(C)C(=O)NC(CCC(N)=O)C(N)=O (centres undefined)	inactive
CC(=O)O[C@H]1C(=O)[C@@]2(C)[C@H]([C@H](OC(=O)c3ccc(F)cc3)[C@]3(O)C[C@H](OC(=O)[C@H](O)[C@@H](NC(=O)c4ccccc4)c4ccccc4)C(C)=C1C3(C)C)[C@]1(OC(C)=O)CO[C@@H]1C[C@@H]2O	active
C[C@]12Cc3cnn(-c4ccc(F)cc4)c3NC1CC[C@@H]1C2CC[C@@]2(C)C1CC[C@@H]2O (some centres undefined)	inactive

---

Parameter: GI50. Scope: all listed entries.
test system: LOX IMVI; assay: NCI tumour cell line growth inhibition, 48 h
The source made the active and inactive calls. Rule as the data show it: active = GI50 up to about 1.1 µM and inactive = higher.

COMPOUND	GI50
COc1cc2c(c3c1c(=O)c1ccccc1n3C)C=CC(C)(C)O2 [ACRONINE]	> 100 µM (inactive)
COc1ccc(C2CC(c3cc(C)ccc3O)=NC(N)=N2)cc1 (centres undefined)	> 100 µM (inactive)
COC(=O)NN=C(c1ccc(Cl)cc1)c1ccc(Cl)cc1	> 100 µM (inactive)
CN(C)CCN1C(=O)N(CCN(C)C)c2c3cc(O)ccc3nc3c([N+](=O)[O-])ccc1c23	10.7 µM (inactive)
Cc1ccc(S(=O)(=O)SC(C)(C)C)cc1	21.9 µM (inactive)
COc1ccc2c(c1)-c1[nH]c3ccccc3c1CC2	18.2 µM (inactive)
C=C1C(C2(C)C=CC(=O)OC3(C)COC(=O)CC32)C(OC=O)C(OC(=O)C(O)C(C)CC)C2(C)C(c3ccoc3)CC(OC(C)=O)C12O (centres undefined)	25.3 µM (inactive)
CC(=O)O[C@H]1C(=O)[C@@]2(C)[C@H]([C@H](OC(=O)c3ccc(F)cc3)[C@]3(O)C[C@H](OC(=O)[C@H](O)[C@@H](NC(=O)c4ccccc4)c4ccccc4)C(C)=C1C3(C)C)[C@]1(OC(C)=O)CO[C@@H]1C[C@@H]2O	0.00828 µM (active)
N#Cc1ccc(C2Oc3ccc(Cl)cc3C=C2[N+](=O)[O-])cc1 (centres undefined)	1.04 µM (active)
Cc1nc2c(n1Cc1ccc(Cl)cc1)C(=O)c1ccccc1C2=O	2.05 µM (inactive)
COc1cc(S(=O)(=O)Nc2ccc(-c3csc(N4C(=O)C(Cl)C4c4cccc(Oc5ccccc5)c4)n3)cc2)ccc1Cl (centres undefined)	2.24 µM (inactive)
COc1ccccc1[C@@H]1CCC2CC[C@@H](c3ccccc3OC)[N+]21Cc1ccccc1 (some centres undefined)	1.69 µM (inactive)
O=C(O)CCCC#CCCCC(=O)O	> 100 µM (inactive)
CCOc1cc2c(cc1O)/C(=N/NS(=O)(=O)c1ccc(C)cc1)C[C@@H]1[C@@H]2CC[C@]2(C)[C@@H](O)CC[C@@H]12	8.43 µM (inactive)
COc1ccc2nc3ccccc3c(NCCCCCN(CCCl)CCCl)c2c1	0.0294 µM (active)
CNC(=O)ON(C(C)=O)C(=O)NC [CARACEMIDE]	33.7 µM (inactive)
Cc1ccc(/C=C2\CCCCCC2=O)cc1	> 100 µM (inactive)
Cc1cn([C@@H]2C[C@](C)(CO)N(C)O2)c(=O)[nH]c1=O	> 100 µM (inactive)
N#Cc1c2c(c(N=[N+]=[N-])n3c1nc1ccccc13)CCCC2	1.8 µM (inactive)
